# system: H⁺/K⁺ ATPase (Oryctolagus cuniculus)
# Construct: Rabbit gastric glands are isolated from gastric mucosa from the corpus region of the stomach; from tissue; host or cells: rabbit isolated gastric glands (gastric mucosa, corpus region of the stomach)
# Sequence (P27112 whole entry): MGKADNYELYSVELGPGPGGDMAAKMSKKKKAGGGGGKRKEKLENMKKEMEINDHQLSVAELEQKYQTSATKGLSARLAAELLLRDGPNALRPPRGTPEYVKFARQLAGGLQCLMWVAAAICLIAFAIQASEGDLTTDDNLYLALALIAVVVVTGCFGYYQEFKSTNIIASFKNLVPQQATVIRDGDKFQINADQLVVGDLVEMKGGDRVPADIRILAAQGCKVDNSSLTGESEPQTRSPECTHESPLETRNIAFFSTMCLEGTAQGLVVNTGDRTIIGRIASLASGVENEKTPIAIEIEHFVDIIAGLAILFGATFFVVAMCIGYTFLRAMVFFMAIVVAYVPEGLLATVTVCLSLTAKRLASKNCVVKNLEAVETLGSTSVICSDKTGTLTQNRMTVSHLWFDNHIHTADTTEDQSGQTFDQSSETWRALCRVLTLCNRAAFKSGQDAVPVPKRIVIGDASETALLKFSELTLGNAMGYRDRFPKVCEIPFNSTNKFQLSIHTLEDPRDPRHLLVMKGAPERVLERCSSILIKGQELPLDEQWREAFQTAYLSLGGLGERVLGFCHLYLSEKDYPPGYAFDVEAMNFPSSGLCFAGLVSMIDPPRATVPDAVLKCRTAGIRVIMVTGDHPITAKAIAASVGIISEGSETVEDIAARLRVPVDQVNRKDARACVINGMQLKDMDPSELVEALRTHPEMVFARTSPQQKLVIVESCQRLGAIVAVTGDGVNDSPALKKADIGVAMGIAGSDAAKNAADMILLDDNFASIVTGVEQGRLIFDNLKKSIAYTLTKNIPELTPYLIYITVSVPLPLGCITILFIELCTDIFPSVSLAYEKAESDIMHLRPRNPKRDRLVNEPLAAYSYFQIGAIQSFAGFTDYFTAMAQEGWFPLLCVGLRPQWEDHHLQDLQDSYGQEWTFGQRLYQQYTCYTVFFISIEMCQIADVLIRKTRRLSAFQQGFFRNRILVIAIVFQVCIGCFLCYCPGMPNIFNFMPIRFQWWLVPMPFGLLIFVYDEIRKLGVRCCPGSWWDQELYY
# Sequence (P18597 whole entry partner): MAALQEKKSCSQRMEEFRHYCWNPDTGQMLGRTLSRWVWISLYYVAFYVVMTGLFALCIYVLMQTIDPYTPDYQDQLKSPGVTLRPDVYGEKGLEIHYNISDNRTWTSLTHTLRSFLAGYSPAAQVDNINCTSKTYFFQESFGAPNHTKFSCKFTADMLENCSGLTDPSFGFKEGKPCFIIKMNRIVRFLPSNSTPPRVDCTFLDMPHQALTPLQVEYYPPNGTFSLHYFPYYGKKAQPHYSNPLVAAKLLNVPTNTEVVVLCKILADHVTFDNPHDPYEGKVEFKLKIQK
# procedure_details: inhibition of 14C-aminopyrine uptake in rabbit isolated gastric glands stimulated by DBcAMP or high K+
# Format: cell-based
# experimental_conditions: at 10⁻⁴M; % inhibition of the maximum response to the secretagogue; read-out: % Inhibition to stimulation by: DBcAMP
experimental_readout: inhibition at 100 µM (%)

P: c1ccc(-c2cccc(-c3cn4c(nc5ccccc54)s3)n2)cc1
Q: Clc1cc2nc3n(c2cc1Cl)CC(c1ccccn1)S3 (stereo not drawn)
R: Cc1ccc(C2Cn3c(nc4cc(Cl)c(Cl)cc43)S2)cn1 (stereo not drawn)
Asked: From the records above, write out the order of decreasing inhibition at 100 µM. Respond with an ordered listing of the labels, as requested.
Given back: R, Q, P

I: CCc1ccc(-c2cn3c(nc4ccccc43)s2)nc1
II: Cc1cc2nc3n(c2cc1C)CC(c1ccccn1)[S+]3[O-] (stereo not drawn)
Asked: Compare inhibition at 100 µM: is it lower for I or for II ? State the label of the item chosen.
Given back: II
(II: 30%, I: 56%)
